- assayed.system: MST2 (full-length, NanoLuc fusion) (Homo sapiens, UniProt Q13188)
- Sequence (Q13188 whole entry, the tested form may be a part): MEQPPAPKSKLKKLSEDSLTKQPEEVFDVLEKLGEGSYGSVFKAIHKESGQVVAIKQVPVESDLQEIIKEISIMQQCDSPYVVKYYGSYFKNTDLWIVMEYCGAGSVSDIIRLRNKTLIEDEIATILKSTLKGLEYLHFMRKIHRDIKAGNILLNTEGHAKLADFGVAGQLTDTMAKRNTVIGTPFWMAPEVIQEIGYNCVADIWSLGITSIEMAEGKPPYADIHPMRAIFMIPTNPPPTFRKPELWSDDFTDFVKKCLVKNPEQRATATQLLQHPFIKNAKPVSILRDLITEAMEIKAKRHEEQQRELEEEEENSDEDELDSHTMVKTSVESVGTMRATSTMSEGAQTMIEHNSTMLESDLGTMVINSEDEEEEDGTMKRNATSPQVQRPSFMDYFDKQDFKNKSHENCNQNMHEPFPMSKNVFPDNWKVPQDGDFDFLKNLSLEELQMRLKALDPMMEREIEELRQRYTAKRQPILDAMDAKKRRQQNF
- assay.procedure: NanoBRET tracer displacement, HEK293T
- Format: cell-based
- measurement.context: intact cells; […] °C, […] h; competitive with tracer

sample.smiles: N#CCc1ccc(Nc2nccc(Nc3cc(C4CC4)[nH]n3)n2)cc1
assayed.system: MST2 (full-length, NanoLuc fusion) (Homo sapiens, UniProt Q13188)
EC50: 0.11 µM

====

- assayed.system: MST4 (full-length, NanoLuc fusion) (Homo sapiens, UniProt Q9P289)
- Sequence (Q9P289 whole entry, the tested form may be a part): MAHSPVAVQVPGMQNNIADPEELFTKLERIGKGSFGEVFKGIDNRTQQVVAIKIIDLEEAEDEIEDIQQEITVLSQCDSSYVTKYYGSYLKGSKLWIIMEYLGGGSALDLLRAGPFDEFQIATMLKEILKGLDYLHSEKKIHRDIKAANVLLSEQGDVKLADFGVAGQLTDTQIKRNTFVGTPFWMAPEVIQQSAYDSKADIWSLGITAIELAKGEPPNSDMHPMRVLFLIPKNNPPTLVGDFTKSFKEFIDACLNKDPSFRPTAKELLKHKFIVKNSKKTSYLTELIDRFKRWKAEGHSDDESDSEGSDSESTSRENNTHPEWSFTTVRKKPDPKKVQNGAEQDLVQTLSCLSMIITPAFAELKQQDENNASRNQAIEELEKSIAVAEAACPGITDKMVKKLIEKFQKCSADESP
- assay.procedure: NanoBRET tracer displacement, HEK293T
- Type: cell-based

compound: O=C1NCCCCCNc2nc(c3ccccc3n2)Nc2cc1[nH]n2 [21c]
unit.descriptor: nM
EC50: 1400

====

- assayed.system: LIMK1 (Homo sapiens, UniProt P53667)
- Sequence (P53667 whole entry): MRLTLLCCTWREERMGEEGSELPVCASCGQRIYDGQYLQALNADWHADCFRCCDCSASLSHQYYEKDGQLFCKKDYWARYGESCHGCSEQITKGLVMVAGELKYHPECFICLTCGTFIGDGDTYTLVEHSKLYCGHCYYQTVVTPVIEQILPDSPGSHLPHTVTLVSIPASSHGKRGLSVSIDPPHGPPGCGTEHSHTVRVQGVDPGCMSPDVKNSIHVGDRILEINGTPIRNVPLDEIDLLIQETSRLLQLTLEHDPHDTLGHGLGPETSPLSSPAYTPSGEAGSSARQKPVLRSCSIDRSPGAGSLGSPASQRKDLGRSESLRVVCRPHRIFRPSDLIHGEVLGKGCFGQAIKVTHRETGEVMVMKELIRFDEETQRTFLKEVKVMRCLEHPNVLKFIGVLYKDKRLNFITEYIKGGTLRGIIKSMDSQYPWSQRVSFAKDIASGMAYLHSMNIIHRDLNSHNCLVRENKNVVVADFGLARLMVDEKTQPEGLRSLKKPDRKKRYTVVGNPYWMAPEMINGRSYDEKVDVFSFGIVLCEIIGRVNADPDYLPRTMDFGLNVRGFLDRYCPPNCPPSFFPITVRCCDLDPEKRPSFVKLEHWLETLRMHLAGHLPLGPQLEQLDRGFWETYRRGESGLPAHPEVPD
- assay.procedure: NanoBRET tracer displacement, HEK293T
- measurement.context: intact cells; […] °C, […] h; competitive with tracer

molecule: O=C1NCCCCCNc2nc(c3ccccc3n2)Nc2cc1[nH]n2 [21c]
assayed.system: LIMK1 (Homo sapiens, UniProt P53667)
EC50 [µM]: 5.67

====

- assayed.system: LIMK2 (Homo sapiens, UniProt P53671)
- Sequence (P53671 whole entry): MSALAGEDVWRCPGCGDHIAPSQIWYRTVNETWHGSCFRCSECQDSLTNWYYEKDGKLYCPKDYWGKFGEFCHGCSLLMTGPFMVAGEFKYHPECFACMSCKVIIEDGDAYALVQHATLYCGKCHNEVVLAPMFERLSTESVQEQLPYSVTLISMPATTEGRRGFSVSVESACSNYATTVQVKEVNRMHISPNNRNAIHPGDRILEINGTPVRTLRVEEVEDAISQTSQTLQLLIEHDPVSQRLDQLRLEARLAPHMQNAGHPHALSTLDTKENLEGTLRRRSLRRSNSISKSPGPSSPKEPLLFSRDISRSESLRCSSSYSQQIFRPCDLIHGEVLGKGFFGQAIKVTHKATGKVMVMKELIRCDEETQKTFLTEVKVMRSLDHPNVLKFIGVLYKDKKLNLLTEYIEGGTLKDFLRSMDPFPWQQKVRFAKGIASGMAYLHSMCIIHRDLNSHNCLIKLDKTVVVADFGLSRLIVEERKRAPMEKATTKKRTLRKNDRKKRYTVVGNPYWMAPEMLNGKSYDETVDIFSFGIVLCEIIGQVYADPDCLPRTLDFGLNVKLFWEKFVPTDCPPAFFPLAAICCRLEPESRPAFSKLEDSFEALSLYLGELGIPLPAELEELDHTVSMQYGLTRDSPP
- assay.procedure: NanoBRET tracer displacement, HEK293T

compound: O=C1NCCCCCNc2nc(c3ccccc3n2)Nc2cc1[nH]n2 [21c]
unit.descriptor: nM
EC50: 1400
